The entries below come with measured Kd values attached.
- tgt: T1, EsCas13d, nuclease-dead (Eubacterium siraeum, UniProt B0MS50, R295A;H300A;R849A;H854A)
- T1 sequence: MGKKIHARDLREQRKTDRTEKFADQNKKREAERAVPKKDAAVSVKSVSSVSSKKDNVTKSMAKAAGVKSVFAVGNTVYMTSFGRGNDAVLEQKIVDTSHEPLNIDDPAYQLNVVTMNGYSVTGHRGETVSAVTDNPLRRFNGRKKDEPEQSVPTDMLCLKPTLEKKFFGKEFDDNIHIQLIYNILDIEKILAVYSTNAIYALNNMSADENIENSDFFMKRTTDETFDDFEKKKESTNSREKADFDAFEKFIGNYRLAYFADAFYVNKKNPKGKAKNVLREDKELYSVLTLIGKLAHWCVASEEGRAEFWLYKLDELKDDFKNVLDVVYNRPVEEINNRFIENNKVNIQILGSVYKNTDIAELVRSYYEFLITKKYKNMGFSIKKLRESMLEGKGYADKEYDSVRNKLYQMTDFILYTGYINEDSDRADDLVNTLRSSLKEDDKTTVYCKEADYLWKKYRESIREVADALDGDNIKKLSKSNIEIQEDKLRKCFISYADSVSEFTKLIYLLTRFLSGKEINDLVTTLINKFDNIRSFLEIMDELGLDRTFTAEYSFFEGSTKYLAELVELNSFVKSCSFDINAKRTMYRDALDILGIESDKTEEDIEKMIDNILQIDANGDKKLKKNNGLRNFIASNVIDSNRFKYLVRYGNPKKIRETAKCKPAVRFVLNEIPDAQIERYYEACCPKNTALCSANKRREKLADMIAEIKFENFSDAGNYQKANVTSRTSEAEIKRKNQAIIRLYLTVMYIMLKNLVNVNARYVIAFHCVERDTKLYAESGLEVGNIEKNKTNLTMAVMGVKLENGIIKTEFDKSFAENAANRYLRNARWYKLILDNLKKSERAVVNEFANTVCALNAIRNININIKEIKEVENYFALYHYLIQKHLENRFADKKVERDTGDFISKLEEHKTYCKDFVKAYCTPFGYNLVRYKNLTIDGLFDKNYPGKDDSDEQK
- procedure-summary: crRNA (strand 1, pre-loaded); Mg2+; 40 mM Tris-HCl pH 7.5, 150 mM NaCl, 6 mM MgCl2, 1 mM DTT, 0.1% Tween-20, 0.2 mg/ml BSA; 25 C; 10 min per concentration, then washed
- assay-conditions: tags: His6-TwinStrep-SUMO cleaved; N-terminal SNAP kept (SNAP-Surface 488); label: 3' end held by stalled T7 RNA polymerase

Use these answered entries as a reference point.
target 1 insU 3' of 6,insU 3' of 1 (mixed) RNA 1: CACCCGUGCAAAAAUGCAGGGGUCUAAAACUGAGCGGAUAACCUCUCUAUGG RNA 2: GGGAAUGGAUCCACAUCUACGAAUUCGUACCAUAGAGAGGUUAUCCUGCUCAUCCGAGAUCGGAAGAGCACACGU
14.1 nM
target 2 MT 5'PFS CUG 3'PFS AUU (mixed) RNA 1: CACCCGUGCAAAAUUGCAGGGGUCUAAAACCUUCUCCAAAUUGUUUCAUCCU RNA 2: GGGAAUGGAUCCACAUCUACGAAUUCCUGAGGAUGAAACAAUUUGGAGAAGAUUAGAUCGGAAGAGCACACGU
2.57 nM
target 1 MT 5'PFS GGU 3'PFS UUC (mixed) RNA 1: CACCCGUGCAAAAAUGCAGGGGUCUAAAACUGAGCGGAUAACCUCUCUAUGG RNA 2: GGGAAUGGAUCCACAUCUACGAAUUCGGUCCAUAGAGAGGUUAUCCGCUCAUUCAGAUCGGAAGAGCACACGU
36 nM
target 1 C2G,G13U (mixed) RNA 1: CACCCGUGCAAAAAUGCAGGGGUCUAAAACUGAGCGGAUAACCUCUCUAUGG RNA 2: GGGAAUGGAUCCACAUCUACGAAUUCGUACCAUAGAGAUGUUAUCCGCUGACCGAGAUCGGAAGAGCACACGU
~60 nM

Would you kindly look at the next entry?
Exercise: Look up and report measured Kd for this entry: target 1 C2G,U8G (mixed) RNA 1: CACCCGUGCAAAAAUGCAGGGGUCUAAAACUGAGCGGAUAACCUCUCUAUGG RNA 2: GGGAAUGGAUCCACAUCUACGAAUUCGUACCAUAGAGAGGUUAGCCGCUGACCGAGAUCGGAAGAGCACACGU
Solution: 17.4 nM

// provenance: paper PMC10786891
